Just for reference, the supplement of paper PMC9170038 is where these values come from.

System: MS2 coat protein
run.description: apparent KD of MS2 coat protein; higher = weaker reporter binding
experimental.context: Eterna round: R107; input ligand: theophylline 2 mM
quantity.measured: apparent KD of MS2 coat protein (nM)
Give the value in nM but do not write nM after it.

Examples with their reported apparent KD of MS2 coat protein follow.
residue.string: ACCUCAUAGGCGGCCGCCACUGUAAUGACUACGUCAAACAUGAGGAUCACCCAUGUAGUCAAUCACAGGACCGGGUCAUGGGUAG [Tryp B SS s2]
scale.unit: nM
apparent KD of MS2 coat protein: 41.4

residue.string: AAUUUUAACGGAAGGAGCGUCACGUAAUUCAUACAUGAGGAUCACCCAUGUUAGUUGUAGAGACAGGUAGGUCGCCGUUAUUUGA [JR_AAArginiB_Sub025]
scale.unit: nM
apparent KD of MS2 coat protein: 17.1

residue.string: UAUAUAGAUGGAAGUUCUAUAGAUGCAGAAGGAGCGUAGGAAACUACAGGUAGGUCGCUGAGGUACAUGAGGAUCACCCAUGUAG [SSArg A #20 Slice of Pi]
scale.unit: nM
apparent KD of MS2 coat protein: 26.4

residue.string: ACCUGCGUUUGUUUCUUUCUGACGCAGGUUCGAGGACCGGUACGGCCGCCACUCGGACAUGAGGAUCACCCAUGUUUGACAUGGG [#02 Exclusion Tryptophan A]
scale.unit: nM
apparent KD of MS2 coat protein: 281

residue.string: UUACACAUGAGGAUCACCCAUGUCUGGGAGCGAGGACCGGUACGGCCGCCACUCGAAUUGUCAGGGCUAUGCCGGACGAUGCAUC [theeternabot_sameState_MS2_Trp_A_20]
scale.unit: nM
apparent KD of MS2 coat protein: 25

Would you mind telling me what apparent KD of MS2 coat protein value was observed for UCGUUGAAGUCGGCCGCCACUGAACUCAUGUUCAACAUGAGGAUCACCCAUGUACCUUAUUUUAACAGGACCGGGACUUUGACGA [JR_ExcTryptoB_Sub002] ? 164

Same read-out for ACAUGAGGAUCACCCAUGUAAUCCUCUGAAGGAGCGAGAAAUAACUCAGGUAGGUCGCAGUUCAAAACAUGAGGAUCACCCAUGU [Exclusion Arginine A GF 9] ? 46.2

Same read-out for ACACAUGAGGAUCACCCAUGUGCGCUGGAAGGAGCGCAGAAUCAUGCAGGUAGGUCGCCAGUGCCUUUUGAUAAAGGGAAAAGAA [Cezaquce] ? 69.3

Same read-out for GACAUGAGGAUCACCCAUGUUUUCUAUGAAGGAGCGUCGGAAAUGACAGGUAGGUCGCAUGGUAGGACUUGUAUCUUGUAUGUAG [EAA NP+V+V2 #10] ? 14.7

Same read-out for GCAUCCUAGUCGGCCGCCACUGCAAUUGUAAUACUGCUACAUGAACAUGAGGAUCACCCAUGUAGCAGGACCGGGACUAGGAUGC [(Trp1)-(TM)''-(TM)'-(Ms2)-(Trp2)_Design9] ? 222

Same read-out for AUAAAUGGGUUAAUUAGUUUUAGGUCCAGUCGAGGACCGGUACGGCCGCCACUCGUCCCAAGUUACAUGAGGAUCACCCAUGUUA [JR_ExcTryptoA_Sub014] ? 91.9

Same read-out for GACCGAUUAUAGUGCGAUUGUCUUGUGGAAGGAGCGCAGAGGACUGCAGGUAGGUCGCCACAUGAGGAUCACCCAUGUCAGGAUU [Reinorlaan] ? 64.8
